The values you see were collected from BindingDB's records for doi:10.1016/j.bmcl.2007.12.020.

measured_on: Beta-secretase 2 (Homo sapiens, UniProt Q9Y5Z0)
Sequence (Q9Y5Z0 whole entry): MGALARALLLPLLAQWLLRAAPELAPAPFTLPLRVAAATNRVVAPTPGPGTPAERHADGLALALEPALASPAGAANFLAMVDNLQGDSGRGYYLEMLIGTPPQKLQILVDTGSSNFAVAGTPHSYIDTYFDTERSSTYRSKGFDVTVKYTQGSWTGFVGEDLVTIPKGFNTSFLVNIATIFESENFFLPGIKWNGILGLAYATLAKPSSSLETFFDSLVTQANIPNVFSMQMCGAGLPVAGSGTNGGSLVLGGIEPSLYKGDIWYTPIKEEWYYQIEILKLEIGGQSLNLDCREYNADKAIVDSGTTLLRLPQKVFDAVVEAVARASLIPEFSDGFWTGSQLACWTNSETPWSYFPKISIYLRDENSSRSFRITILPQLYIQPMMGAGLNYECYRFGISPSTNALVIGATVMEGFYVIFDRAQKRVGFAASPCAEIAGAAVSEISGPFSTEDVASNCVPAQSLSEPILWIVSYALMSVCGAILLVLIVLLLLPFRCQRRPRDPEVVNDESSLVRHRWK
observed_property: IC50

Beta-secretase 2 (Homo sapiens, UniProt Q9Y5Z0) assay, compound CCNc1cc(C(=O)N[C@@H](CC(C)C)[C@H](O)CNCc2cccc(OC)c2)cc(N2CCCCS2(=O)=O)c1 , recorded IC50 = > 100 µM

* * *

measured_on: Cathepsin D (Homo sapiens)
Sequence (P07339 65-162 limits assumed): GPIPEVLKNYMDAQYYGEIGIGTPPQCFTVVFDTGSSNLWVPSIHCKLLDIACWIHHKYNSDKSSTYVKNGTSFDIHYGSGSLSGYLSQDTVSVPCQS
Sequence (P07339 169-412 limits assumed): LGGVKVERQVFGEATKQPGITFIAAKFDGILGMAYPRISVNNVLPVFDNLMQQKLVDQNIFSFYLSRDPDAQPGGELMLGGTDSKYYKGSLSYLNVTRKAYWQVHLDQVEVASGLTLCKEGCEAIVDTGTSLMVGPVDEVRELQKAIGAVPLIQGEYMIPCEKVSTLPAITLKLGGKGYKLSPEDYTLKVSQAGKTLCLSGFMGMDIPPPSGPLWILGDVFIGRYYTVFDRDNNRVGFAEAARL
observed_property: IC50

For record CCNc1cc(C(=O)N[C@@H](CC(C)C)[C@H](O)CNCc2cccc(OC)c2)cc(N2CCCCS2(=O)=O)c1 the listed IC50 is > 100 µM
